molecular target: human CD3 on the cell surface (Jurkat cells, expanded human T cells, Jurkat-Lucia NFAT cells, human PBMC) (human, UniProt P07766 23-207; P04234 22-171; P09693 23-182); test: cell-based or functional assay
Sequence (P07766 23-207, chain 1 of 3): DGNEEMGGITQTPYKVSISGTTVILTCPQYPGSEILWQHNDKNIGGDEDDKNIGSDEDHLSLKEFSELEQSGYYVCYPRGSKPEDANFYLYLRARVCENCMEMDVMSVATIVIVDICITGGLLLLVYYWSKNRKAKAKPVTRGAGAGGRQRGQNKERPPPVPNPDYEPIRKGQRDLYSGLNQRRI
Sequence (P04234 22-171, chain 2 of 3): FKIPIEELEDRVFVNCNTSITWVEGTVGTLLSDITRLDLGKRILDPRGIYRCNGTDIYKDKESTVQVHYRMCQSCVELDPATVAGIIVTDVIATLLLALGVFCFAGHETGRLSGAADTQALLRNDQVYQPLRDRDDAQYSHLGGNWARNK
Sequence (P09693 23-182, chain 3 of 3): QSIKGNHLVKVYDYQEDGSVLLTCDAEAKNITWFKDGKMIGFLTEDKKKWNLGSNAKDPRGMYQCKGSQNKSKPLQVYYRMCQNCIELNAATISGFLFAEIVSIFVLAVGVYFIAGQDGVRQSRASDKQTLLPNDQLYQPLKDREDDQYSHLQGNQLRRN
quantity.measured: Reporter assay (RLU), Jurkat-Lucia NFAT, supernatant diluted by 20 times
Give the quantity in RLU, number only.

Incoming: Name the recorded Reporter assay (RLU), Jurkat-Lucia NFAT, supernatant diluted by 20 times for 7-35.6 murine hybridoma antibody (supernatant) (antibody, V domains shown, Tested as hybridoma supernatant) VH: EVQLVESGGGLVQPKGSLKLSCAASGFTFNTYAMNWVRQAPGKGLEWVGRIRSKINNYATYYGDSVKDRFTISRDDSQSMFYLQMNNLKTEDTAMYYCVIHENYGSISWFAYWGQGTLVTVSA VL: QAVVTQESTLTTSPGETVTLTCRSSTGAVTTSNYANWVQEKPDHLFTGLIGGTNNRAPGVPARFSGSLIGDKAALTITGAQTEDEAIYFCALWYSNHWVFGGGTKLTVL .
Outgoing: 14800

Incoming: Name the recorded Reporter assay (RLU), Jurkat-Lucia NFAT, supernatant diluted by 20 times for 6-44.5 murine hybridoma antibody (supernatant) (antibody, V domains shown, Tested as hybridoma supernatant) VH: EVQLQQSGPELVKPGASVKMSCKASGHTFTSHIMHWVKQKPGQGLEWIGYINPNNDRTEYSEKFKGKATLTSDKSSSTAYMELSSLTSEDSAVYYCAGEAYYSNSLYAMDYWGQGTSVTVSS VL: DIVMSQSPSSLAVSAGEKVTMSCKSSQSLFNSRTRKNYLAWYQQKPGQSPELLIYWASTRESGVPVRFTGSGSGTDFTLTISSVQAEDLAVYYCKQSYYLRTFGGGTKLEVK .
Outgoing: 21400

Incoming: Name the recorded Reporter assay (RLU), Jurkat-Lucia NFAT, supernatant diluted by 20 times for 5-40.21 murine hybridoma antibody (supernatant) (antibody, V domains shown, Tested as hybridoma supernatant) VH: QVQLQQPGSELVRPGASVKLSCKASGYTFTSYWMHWVKQRPGQGLEWIGNTYPGSGSTNYDEKFKSKATLTVDSSSSTAYMQLSSLTSEDSAVYYCTRDRYGVYYFDYWGQGTTLTVSS VL: DIVMSQSPSSLAVSAGEKVTMSCKSSQSLLNSRTRKNYLAWYQQKPGQSPKLLIYWASTRESGVPDRFSGSGSGTDFTLTISSVQAEDLAVYYCTQSYNLRTFGGGTKLEIK .
Outgoing: 15600
